Tested on: recombinant NL4-3 virus (nef section replaced with Renilla luciferase gene) in MT-2 cells
Test: HIV cell culture assay (antiviral activity, luciferase readout)
Type: cell-based
Settings: Renilla, NL43, MT-2 cells infected for 4-5 days with recombinant NL4-3 Renilla luciferase virus, serial dilutions of compound
Each entry below carries its reported log10 of EC50.
measured.endpoint: log10 of EC50 (log10 of the value in nM)

{"compound": "O=C(Cn1ccc(C2CC2)n1)N[C@@H](Cc1cc(F)cc(F)c1)c1nc2cc(-c3c(F)cccc3F)ccc2c(=O)n1-c1ccc(S(=O)(=O)N2CCOCC2)cc1", "log10 of EC50": 0.94}
{"compound": "CS(=O)(=O)c1ccccc1-c1ccc2c(=O)n(-c3ccc(Cl)c4c(NS(=O)(=O)C5CC5)nn(CC(F)F)c34)c([C@H](Cc3cc(F)cc(F)c3)NC(=O)Cn3nc(C(F)F)c4c3C(F)(F)[C@@H]3C[C@H]43)nc2c1", "log10 of EC50": -1.09}
{"compound": "Cn1nc(NS(C)(=O)=O)c2c(Cl)ccc(-n3c([C@H](Cc4cc(F)cc(F)c4)NC(=O)Cn4nc(C(F)F)c5c4C(F)(F)[C@@H]4C[C@H]54)nc4cc(-c5ccccc5)ccc4c3=O)c21", "log10 of EC50": -0.44}
{"compound": "Cc1cccc(C)c1-c1ccc2c(=O)n(-c3ccc(S(=O)(=O)N4CCOCC4)cc3)c([C@H](Cc3cc(F)cc(F)c3)NC(=O)Cn3ccc(C4CC4)n3)nc2c1", "log10 of EC50": 1.48}
{"compound": "Cc1nccnc1-c1ccc2c(=O)n(-c3ccc(Cl)c4c(NS(=O)(=O)C5CC5)nn(CC(F)F)c34)c([C@H](Cc3cc(F)cc(F)c3)NC(=O)Cn3nc(C(F)F)cc3C(F)F)nc2c1", "log10 of EC50": 0.18}
{"compound": "Cn1nc(NS(C)(=O)=O)c2c(Cl)ccc(-n3c([C@H](Cc4cc(F)cc(F)c4)NC(=O)Cn4nc(C(F)F)c5c4C(F)(F)[C@@H]4C[C@H]54)nc4cc(-c5cc(F)ccc5F)ccc4c3=O)c21 (atropisomer, axis not shown; (aR))", "log10 of EC50": -0.17}
{"compound": "O=C(Cn1ccc(C2CC2)n1)N[C@@H](Cc1cc(F)cc(F)c1)c1nc2cc(-c3cc(F)ccc3F)ccc2c(=O)n1-c1ccc(S(=O)(=O)N2CCOCC2)cc1", "log10 of EC50": 0.95}
{"compound": "CS(=O)(=O)Nc1nn(CC(F)F)c2c(-n3c([C@H](Cc4cc(F)cc(F)c4)NC(=O)Cn4nc(C(F)F)c5c4C(F)(F)[C@@H]4C[C@H]54)nc4cc(-c5ncccn5)ccc4c3=O)ccc(Cl)c12 (atropisomer, axis not shown; (aR))", "log10 of EC50": -1.24}
{"compound": "CC(C)n1ccc(CC(=O)N[C@@H](Cc2cc(F)cc(F)c2)c2nc3cc(-c4ccccc4F)ccc3c(=O)n2-c2ccc(Cl)c3c(NS(C)(=O)=O)nn(C)c23)n1", "log10 of EC50": -0.12}
{"compound": "O=C(Cn1ccc(C2CC2)n1)N[C@@H](Cc1cc(F)cc(F)c1)c1nc2cc(-c3cccnc3)ccc2c(=O)n1-c1ccc(S(=O)(=O)N2CCOCC2)cc1", "log10 of EC50": 0.57}
{"compound": "Cc1nn(C)c(C)c1-c1ccc2c(=O)n(-c3ccc(Cl)c4c(NS(C)(=O)=O)nn(C)c34)c([C@H](Cc3cc(F)cc(F)c3)NC(=O)Cn3nc(C(F)F)c4c3C(F)(F)[C@@H]3C[C@H]43)nc2c1 (atropisomer, axis not shown; (aR))", "log10 of EC50": -0.49}

====

Experiment: Compound cytotoxicity, XTT-based colorimetric assay
Type: cell-based
Details: human, uninfected MT2 cells, day 4, XTT

{"molecule": "Cc1ccccc1-c1ccc2c(=O)n(-c3ccc(S(=O)(=O)N4CCOCC4)cc3)c([C@H](Cc3cc(F)cc(F)c3)NC(=O)Cn3ccc(C4CC4)n3)nc2c1", "CC50 at 4 day": "> 1000 nM"}
{"molecule": "Cn1nc(NS(C)(=O)=O)c2c(Cl)ccc(-n3c([C@H](Cc4cc(F)cc(F)c4)NC(=O)Cn4nc(C(F)F)c5c4C(F)(F)[C@@H]4C[C@H]54)nc4cc(-c5ccc(Cl)cc5Cl)ccc4c3=O)c21 (atropisomer, axis not shown; (aR))", "CC50 at 4 day": "> 1000 nM"}
{"molecule": "CS(=O)(=O)Nc1nn(CC(F)(F)F)c2c(-n3c([C@H](Cc4cc(F)cc(F)c4)NC(=O)Cn4nc(C(F)F)c5c4C(F)(F)[C@@H]4C[C@H]54)nc4cc(-c5ccccc5S(C)(=O)=O)ccc4c3=O)ccc(Cl)c12", "CC50 at 4 day": "> 500 nM"}
{"molecule": "CS(=O)(=O)c1ccccc1-c1ccc2c(=O)n(-c3ccc(Cl)c4c(NS(=O)(=O)C5CC5)nn(CC(F)F)c34)c([C@H](Cc3cc(F)cc(F)c3)NC(=O)Cn3nc(C(F)F)c4c3C(F)(F)[C@@H]3C[C@H]43)nc2c1", "CC50 at 4 day": "> 500 nM"}
{"molecule": "CS(=O)(=O)Nc1nn(CC(F)F)c2c(-n3c([C@H](Cc4cc(F)cc(F)c4)NC(=O)Cn4nc(C(F)F)c5c4C(F)(F)[C@@H]4C[C@H]54)nc4cc(-c5ccccc5S(C)(=O)=O)ccc4c3=O)ccc(Cl)c12", "CC50 at 4 day": "> 500 nM"}
{"molecule": "CS(=O)(=O)Nc1nn(CC(F)(F)F)c2c(-n3c([C@H](Cc4cc(F)cc(F)c4)NC(=O)Cn4nc(C(F)F)c5c4C(F)(F)[C@@H]4C[C@H]54)nc4cc(-c5ncccn5)ccc4c3=O)ccc(Cl)c12", "CC50 at 4 day": "> 500 nM"}
{"molecule": "Cc1cc(Cl)ccc1-c1ccc2c(=O)n(-c3ccc(S(=O)(=O)N4CCOCC4)cc3)c([C@H](Cc3cc(F)cc(F)c3)NC(=O)Cn3ccc(C4CC4)n3)nc2c1", "CC50 at 4 day": "> 1000 nM"}
{"molecule": "CC(C)c1ccn(CC(=O)N[C@@H](Cc2cc(F)cc(F)c2)c2nc3cc(-c4ccccc4F)ccc3c(=O)n2-c2ccc(Cl)c3c(NS(=O)(=O)C4CC4)nn(CC(F)F)c23)n1 (atropisomer, axis not shown)", "CC50 at 4 day": "> 1000 nM"}
{"molecule": "O=C(Cn1nc(C(F)F)c2c1C(F)(F)[C@@H]1C[C@H]21)N[C@@H](Cc1cc(F)cc(F)c1)c1nc2cc(-c3cc(F)ccc3F)ccc2c(=O)n1-c1ccc(S(=O)(=O)N2CCOCC2)cc1", "CC50 at 4 day": "> 1000 nM"}

====

Tested on: recombinant NL4-3 virus (nef section replaced with Renilla luciferase gene) in MT-2 cells
Assay: HIV cell culture assay (antiviral activity, luciferase readout)
Assay type: cell-based
Details: Renilla, NL43, MT-2 cells infected for 4-5 days with recombinant NL4-3 Renilla luciferase virus, serial dilutions of compound
Lab note - cut at 0.6 nM for EC50: satisfied if strictly below, not satisfied if not.

{"molecule": "Cn1nc(NS(C)(=O)=O)c2c(Cl)ccc(-n3c([C@H](Cc4cc(F)cc(F)c4)NC(=O)Cn4nc(C(F)F)c5c4C(F)(F)[C@@H]4C[C@H]54)nc4cc(-c5ccc(F)cc5F)ccc4c3=O)c21", "tested.system": "recombinant NL4-3 virus (nef section replaced with Renilla luciferase gene) in MT-2 cells", "assigned.class": "satisfied"}
{"molecule": "Cn1nc(NS(C)(=O)=O)c2c(Cl)ccc(-n3c([C@H](Cc4cc(F)cc(F)c4)NC(=O)Cn4nc(C(F)F)c5c4C(F)(F)[C@@H]4C[C@H]54)nc4cc(-c5c(F)cccc5F)ccc4c3=O)c21", "tested.system": "recombinant NL4-3 virus (nef section replaced with Renilla luciferase gene) in MT-2 cells", "assigned.class": "not satisfied"}
{"molecule": "CCS(=O)(=O)c1ccccc1-c1ccc2c(=O)n(-c3ccc(Cl)c4c(NS(C)(=O)=O)nn(CC(F)F)c34)c([C@H](Cc3cc(F)cc(F)c3)NC(=O)Cn3nc(C(F)F)c4c3C(F)(F)[C@@H]3C[C@H]43)nc2c1", "tested.system": "recombinant NL4-3 virus (nef section replaced with Renilla luciferase gene) in MT-2 cells", "assigned.class": "satisfied"}
{"molecule": "Cn1nc(NS(C)(=O)=O)c2c(Cl)ccc(-n3c([C@H](Cc4cc(F)cc(F)c4)NC(=O)Cn4nc(C(F)F)c5c4C(F)(F)[C@@H]4C[C@H]54)nc4cc(-c5cc(F)c(F)c(F)c5)ccc4c3=O)c21 (atropisomer, axis not shown; (aR))", "tested.system": "recombinant NL4-3 virus (nef section replaced with Renilla luciferase gene) in MT-2 cells", "assigned.class": "not satisfied"}
{"molecule": "O=C(Cc1ccn(C2CC2)n1)N[C@@H](Cc1cc(F)cc(F)c1)c1nc2cc(-c3ccccc3F)ccc2c(=O)n1-c1ccc(Cl)c2c(NS(=O)(=O)C3CC3)nn(CC(F)F)c12", "tested.system": "recombinant NL4-3 virus (nef section replaced with Renilla luciferase gene) in MT-2 cells", "assigned.class": "satisfied"}
{"molecule": "Cc1nccnc1-c1ccc2c(=O)n(-c3ccc(Cl)c4c(NS(=O)(=O)C5CC5)nn(CC(F)F)c34)c([C@H](Cc3cc(F)cc(F)c3)NC(=O)Cn3nc(C(F)F)c4c3C(F)(F)[C@@H]3C[C@H]43)nc2c1 (atropisomer, axis not shown; (aR))", "tested.system": "recombinant NL4-3 virus (nef section replaced with Renilla luciferase gene) in MT-2 cells", "assigned.class": "satisfied"}
{"molecule": "Cc1cc(F)ccc1-c1ccc2c(=O)n(-c3ccc(Cl)c4c(NS(C)(=O)=O)nn(C)c34)c([C@H](Cc3cc(F)cc(F)c3)NC(=O)Cn3nc(C(F)F)c4c3C(F)(F)[C@@H]3C[C@H]43)nc2c1", "tested.system": "recombinant NL4-3 virus (nef section replaced with Renilla luciferase gene) in MT-2 cells", "assigned.class": "not satisfied"}
